# study.target: T1, mfPRLR.mmh (soluble monomeric macaca fascicularis PRLR) (macaca fascicularis)
# T1 construct: soluble monomeric PRLR protein; also called macaca fascicularis (mf) PRLR.mmh; monkey PRLR
# T1 chain: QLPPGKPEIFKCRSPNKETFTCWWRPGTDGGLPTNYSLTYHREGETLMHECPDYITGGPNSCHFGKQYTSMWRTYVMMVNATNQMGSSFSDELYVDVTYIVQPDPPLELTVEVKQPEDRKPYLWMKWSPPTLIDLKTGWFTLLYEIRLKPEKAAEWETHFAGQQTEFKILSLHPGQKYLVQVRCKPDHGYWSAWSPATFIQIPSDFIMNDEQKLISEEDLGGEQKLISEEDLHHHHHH
# procedure.details: SPR (Biacore), antibody capture, 37 C
Attribute: koff
Just the number please, in s⁻¹, no unit attached.

Examples from the recorded data:
koff for H1H6790P (antibody, human IgG1, V domains shown, human IgG1 Fc (H1H)) VH: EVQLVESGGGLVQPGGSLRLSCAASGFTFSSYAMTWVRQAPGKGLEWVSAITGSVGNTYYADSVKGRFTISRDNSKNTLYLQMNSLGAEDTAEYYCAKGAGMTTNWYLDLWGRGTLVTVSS VL: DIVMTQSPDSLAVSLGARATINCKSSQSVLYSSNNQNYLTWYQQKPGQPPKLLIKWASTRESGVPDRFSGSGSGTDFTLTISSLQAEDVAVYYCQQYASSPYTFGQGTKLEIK ?
0.00321

koff for H1H6976N (antibody, human IgG1, V domains shown, also called H2M6976N) VH: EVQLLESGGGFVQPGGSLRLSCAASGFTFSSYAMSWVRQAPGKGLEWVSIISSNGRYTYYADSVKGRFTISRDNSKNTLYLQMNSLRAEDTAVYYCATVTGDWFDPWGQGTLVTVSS VL: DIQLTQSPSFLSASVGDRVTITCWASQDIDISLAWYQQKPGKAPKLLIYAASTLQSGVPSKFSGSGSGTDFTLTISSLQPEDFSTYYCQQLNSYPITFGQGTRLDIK ?
0.00316

koff for H1H6785P (antibody, human IgG1, V domains shown, human IgG1 Fc (H1H)) VH: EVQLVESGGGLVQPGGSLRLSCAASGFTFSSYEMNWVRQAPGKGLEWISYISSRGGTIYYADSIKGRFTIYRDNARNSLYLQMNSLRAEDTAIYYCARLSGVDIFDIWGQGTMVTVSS VL: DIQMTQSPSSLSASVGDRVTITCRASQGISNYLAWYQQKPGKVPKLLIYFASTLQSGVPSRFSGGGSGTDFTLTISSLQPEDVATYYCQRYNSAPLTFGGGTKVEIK ?
0.00045

koff for H1H6958N2 (antibody, human IgG1, V domains shown, also called H2M6958N2) VH: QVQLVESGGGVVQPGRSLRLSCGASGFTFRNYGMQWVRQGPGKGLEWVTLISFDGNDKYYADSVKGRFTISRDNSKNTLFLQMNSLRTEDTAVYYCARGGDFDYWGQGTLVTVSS VL: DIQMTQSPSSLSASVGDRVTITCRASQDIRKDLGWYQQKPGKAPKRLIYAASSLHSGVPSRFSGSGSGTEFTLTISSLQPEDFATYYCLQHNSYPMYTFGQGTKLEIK ?
0.00134

koff for H1H6960N (antibody, human IgG1, V domains shown, also called H2M6960N) VH: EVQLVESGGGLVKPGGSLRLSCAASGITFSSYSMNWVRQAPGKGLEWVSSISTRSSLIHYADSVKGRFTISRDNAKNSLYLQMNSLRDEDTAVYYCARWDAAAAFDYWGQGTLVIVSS VL: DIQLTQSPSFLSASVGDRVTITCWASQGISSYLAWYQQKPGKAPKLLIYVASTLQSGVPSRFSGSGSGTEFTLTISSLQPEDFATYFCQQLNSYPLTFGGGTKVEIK ?
0.00128

koff for H1H6803P (antibody, human IgG1, V domains shown, human IgG1 Fc (H1H)) VH: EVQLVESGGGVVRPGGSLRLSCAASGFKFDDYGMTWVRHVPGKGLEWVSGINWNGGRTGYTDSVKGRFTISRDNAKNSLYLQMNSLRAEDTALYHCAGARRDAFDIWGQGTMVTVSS VL: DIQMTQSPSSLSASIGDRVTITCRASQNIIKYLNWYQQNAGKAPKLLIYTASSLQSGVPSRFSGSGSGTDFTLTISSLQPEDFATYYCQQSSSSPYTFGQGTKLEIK ?
0.000636

koff for H1H6765P (antibody, human IgG1, V domains shown, human IgG1 Fc (H1H)) VH: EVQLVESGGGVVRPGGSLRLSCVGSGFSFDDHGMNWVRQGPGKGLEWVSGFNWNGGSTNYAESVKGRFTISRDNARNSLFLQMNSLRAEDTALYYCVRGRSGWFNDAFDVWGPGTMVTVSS VL: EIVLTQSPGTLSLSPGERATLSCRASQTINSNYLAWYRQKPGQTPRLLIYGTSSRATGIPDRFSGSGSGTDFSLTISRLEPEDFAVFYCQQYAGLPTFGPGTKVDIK ?
5.37e-05

Attention now turns to another entry.
koff for H1H6800P (antibody, human IgG1, V domains shown, human IgG1 Fc (H1H)) VH: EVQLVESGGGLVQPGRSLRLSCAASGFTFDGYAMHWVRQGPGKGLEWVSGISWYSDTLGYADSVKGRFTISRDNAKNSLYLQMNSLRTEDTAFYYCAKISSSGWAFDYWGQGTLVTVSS VL: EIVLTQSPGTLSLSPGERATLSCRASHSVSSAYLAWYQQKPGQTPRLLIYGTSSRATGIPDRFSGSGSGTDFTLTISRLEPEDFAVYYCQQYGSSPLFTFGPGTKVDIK ?
0.00109

Measured values drawn from patent US20180185504A1 for this set.
